The measured values listed here are drawn from paper PMC4622456.

- system.name: recombinant human IL23 (human, UniProt Q9NPF7;P29460)
- Sequence (Q9NPF7 20-189, chain 1 of 2): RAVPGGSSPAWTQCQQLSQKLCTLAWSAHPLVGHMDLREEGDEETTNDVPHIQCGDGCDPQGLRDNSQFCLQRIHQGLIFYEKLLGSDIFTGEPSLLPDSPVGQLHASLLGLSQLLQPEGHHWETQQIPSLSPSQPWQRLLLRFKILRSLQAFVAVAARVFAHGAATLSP
- Sequence (P29460 23-328, chain 2 of 2): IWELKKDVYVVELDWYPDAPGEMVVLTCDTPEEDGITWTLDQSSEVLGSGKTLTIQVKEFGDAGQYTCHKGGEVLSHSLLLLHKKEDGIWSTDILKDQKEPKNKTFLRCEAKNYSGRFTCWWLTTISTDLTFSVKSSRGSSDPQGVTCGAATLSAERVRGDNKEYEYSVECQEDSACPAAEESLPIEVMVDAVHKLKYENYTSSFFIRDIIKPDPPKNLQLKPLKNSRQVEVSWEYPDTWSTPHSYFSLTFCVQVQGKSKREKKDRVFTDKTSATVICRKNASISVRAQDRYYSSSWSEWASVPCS
- procedure.details: BLI
Reported pKd values for a set of binders
Note on pKd: it is the negative log10 of concentration, concentration in mol/L.

| binder | pKd |
| --- | --- |
| 34G3 (antibody, V domains shown) VH: EFQLQQSGPELVKPGASVKISCKASGYSFTDYNMNWVKQSKGKSLEWIGVIIPNYGFTSYNQNFKGKATLTVDQSSSTAHMQLNSVTSEDSAVYYCVRDGGILLWYLDVWGTGTTVTVSS VL: DVVMTQTPLSLPVSLGDQASISCRSSQSLVHSNGNTYLHWYLQKPGQSPKLLIYKVSNRFSGVPDRFSGSGSGTDFTLKISRVEAEDLGVYFCSQSTHVPYTFGGGTKLEIN | 10.48 |

Okay, now this binder:
Measured pKd, 15C11 (antibody, V domains shown) VH: EVQLQQSGPVLVKPGASVKMSCKASGYTFTDYYMNWVKQSHGKSLEWIGVIIPYNGGTSYNQKFKGKATLTVDKSSSTAYMELNSLTSEDSAVYYCARDGHRWYFDVWGTGTTVTVSS VL: DVVMTQTPLSLPVSLGDQASISCRSSQSLVHSNGNTYLHWYLQKPGQSPKLLIYKVSNRFSGVPDRFSGSGSGTDFTLKINRVEAEDLGVYFCSQSTHVPYTFGGGTQLEIK : 10.59
